Test system: Escherichia coli K-12 ML 1629
Test: MIC, standard serial dilution method
Format: cell-based
Details: K12ML1629, pH 7, read-out: MIC

SMI	MIC
NC[C@@H](F)[C@H](O)C(=O)N[C@@H]1C[C@H](N)[C@@H](O[C@H]2O[C@H](CN)[C@@H](O)C[C@H]2F)[C@H](O)[C@H]1O[C@H]1O[C@H](CO)[C@@H](O)[C@H](N)[C@H]1O	0.39 µg/mL
NC[C@@H](F)[C@H](O)C(=O)N[C@@H]1C[C@H](N)[C@@H](O[C@H]2O[C@H](CN)[C@@H](O)[C@H](O)[C@H]2O)[C@H](F)[C@H]1O[C@H]1O[C@H](CO)[C@@H](O)[C@H](N)[C@H]1O	0.39 µg/mL
NC[C@@H](F)[C@H](O)C(=O)N[C@@H]1C[C@H](N)[C@@H](O[C@H]2O[C@H](CN)[C@@H](O)[C@H](O)[C@H]2N)[C@H](F)[C@H]1O[C@H]1O[C@H](CO)[C@@H](O)[C@H](N)[C@H]1O	0.78 µg/mL
NC[C@@H](F)[C@H](O)C(=O)N[C@@H]1C[C@H](N)[C@@H](O[C@H]2O[C@H](CN)[C@@H](O)[C@H](O)[C@H]2O)[C@H](O)[C@H]1O[C@H]1O[C@H](CO)[C@@H](O)[C@H](N)[C@H]1O	1.56 µg/mL

* * *

Tested on: Escherichia coli K-12 R5
# MIC listing for each entry below

SMI	MIC / µg/mL
NC[C@@H](F)[C@H](O)C(=O)N[C@@H]1C[C@H](N)[C@@H](O[C@H]2O[C@H](CN)[C@@H](O)C[C@H]2F)[C@H](O)[C@H]1O[C@H]1O[C@H](CO)[C@@H](O)[C@H](N)[C@H]1O	6.25
NC[C@@H](F)[C@H](O)C(=O)N[C@@H]1C[C@H](N)[C@@H](O[C@H]2O[C@H](CN)[C@@H](O)[C@H](O)[C@H]2N)[C@H](O)[C@H]1O[C@H]1O[C@H](CO)[C@@H](O)[C@H](N)[C@H]1O	3.12
NC[C@@H]1CC[C@@H](N)[C@@H](O[C@H]2[C@H](O)[C@@H](O[C@H]3O[C@H](CO)[C@@H](O)[C@H](N)[C@H]3O)[C@H](NC(=O)[C@@H](O)[C@H](F)CN)C[C@@H]2N)O1	3.12
NC[C@@H](F)[C@H](O)C(=O)N[C@@H]1C[C@H](N)[C@@H](O[C@H]2O[C@H](CN)[C@@H](O)[C@H](O)[C@H]2N)[C@H](F)[C@H]1O[C@H]1O[C@H](CO)[C@@H](O)[C@H](N)[C@H]1O	3.12

* * *

Test system: Pseudomonas aeruginosa TI 13
Test: MIC, standard serial dilution method
Type: cell-based
Conditions: Pseudomonas aeruginosa, TI13; measured at pH 6; read-out: MIC
# MIC listing for each entry below

MOLECULE	MIC
NC[C@@H](F)[C@H](O)C(=O)N[C@@H]1C[C@H](N)[C@@H](O[C@H]2O[C@H](CN)[C@@H](O)C[C@H]2N)[C@H](O)[C@H]1O[C@H]1O[C@H](CO)[C@@H](O)[C@H](N)[C@H]1O [Invention Compound No. 6]	3.12 µg/mL
NC[C@@H]1CC[C@@H](N)[C@@H](O[C@H]2[C@H](O)[C@@H](O[C@H]3O[C@H](CO)[C@@H](O)[C@H](N)[C@H]3O)[C@H](NC(=O)[C@@H](O)[C@H](F)CN)C[C@@H]2N)O1 [Invention Compound No. 7]	1.56 µg/mL
NC[C@@H](F)[C@H](O)C(=O)N[C@@H]1C[C@H](N)[C@@H](O[C@@H]2CC[C@H](O)[C@@H](CN)O2)[C@H](O)[C@H]1O[C@H]1O[C@H](CO)[C@@H](O)[C@H](N)[C@H]1O [Invention Compound No. 2]	3.12 µg/mL
NC[C@@H](F)[C@H](O)C(=O)N[C@@H]1C[C@H](N)[C@@H](O[C@H]2O[C@H](CN)[C@@H](O)[C@H](O)[C@H]2N)[C@H](F)[C@H]1O[C@H]1O[C@H](CO)[C@@H](O)[C@H](N)[C@H]1O [Invention Compound No. 8]	6.25 µg/mL
